# Test system: PPARg:RXRa DBDmut IVT, anti-RXR (DBD mutation: RXRa K156A/R161A, NR concentration 270 nM, RXRa partner concentration 90 nM)
# methodDescription: PBM binding z-score (relative to random genomic background probes); higher = stronger binding; sequences stand for … in GC…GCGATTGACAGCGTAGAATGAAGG
Tag: true (1) if measured PBM binding z-score is not below 2, false (0) if it is.

Hi, just wondering whether "CAAACTAGGTCAAGGTCAAAATCGGTTTGTGCCA" shows PBM binding z-score of 2 or higher.
true (1)

Answer whether PBM binding z-score of "TAGCCTGGGTCAGATCGGGCCAGTATACGCTATA" is greater than or equal to 2.
false (0)

Could you please find out whether "CCAGACAGGTGAGGAGGTAACTCAGCCTCGATTA" has PBM binding z-score that meets 2 or exceeds it?
false (0)

Does PBM binding z-score meet or surpass 2 for "ATCGAAAGGTCGTGAGGTGAGTATCCAGAAAGGC" ?
false (0)

Quick check: does "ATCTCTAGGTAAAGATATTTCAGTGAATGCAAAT" have PBM binding z-score greater than or equal to 2?
true (1)

Threshold query (PBM binding z-score >= 2) on "CCTTGGAGGACAGAAGGTCAGAGCTGTCCGCTTT"
false (0)

PBM binding z-score >= 2 for "TCTACTAGTTGATTAGGGCAACCGAAACAGCGGA" ?
false (0)

State whether the measured PBM binding z-score reaches 2, counting equality as reaching it, for "ACTCTTAGTTGACTTAGGGCAACCGATACGACGC"
false (0)

Could you tell me if the measured PBM binding z-score of "CCGGACAGGTGAGAAGGTAACTCAGCCTCGATTA" reaches 2 or more?
false (0)

Would you say "ATCTCTAGGTAACCAAGTGCAGTGAATGCCGAAC" shows PBM binding z-score at minimum 2?
true (1)

Threshold query (PBM binding z-score >= 2) on "TCTTGTAGATCACCAGGAGGTTAAGAAAGATCGA"
false (0)

Textbook exercise: given the entry "CCTATTAGTTGTCCATAAGGGCAACCGAAGCTCG" , state whether its PBM binding z-score is greater than or equal to 2.
false (0)

PBM binding z-score >= 2 for "ATCGAAAGGTCGTGAGATGAGTATACAGAAAGGC" ?
false (0)

Hi team, for "CCTAGCAGGCCAATCTGGGTAACTCAAGGCTTGA" , is the recorded PBM binding z-score at or above 2?
true (1)

Kindly determine if PBM binding z-score recorded for "CCGACTCGGGCATAAGGTTACCATAAGCCAGCCC" is above or exactly 2.
false (0)

Quick check, PBM binding z-score >= 2? "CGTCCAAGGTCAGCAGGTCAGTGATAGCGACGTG"
true (1)

Evaluate "CCAGACAGGTGAAAGGTAACTCAATCTGGTACGC" : PBM binding z-score at minimum 2?
true (1)

hey, is PBM binding z-score for this one >= 2? "CCGAGTAGGCTATGGGGCATTCAGGCAACGGTGA"
false (0)

Exam item: decide whether the reported PBM binding z-score for "TCTTGTAGATCAACAGGAGGTCAAGAAAGATCGA" is at least 2.
false (0)

Threshold query (PBM binding z-score >= 2) on "CCGACTGGGGCAAGGCTACCATAACGCACAGCCA"
true (1)

Please indicate if the recorded PBM binding z-score for "TCATATAGGTAATACAGATGAAAGTCGGCATCTA" meets or exceeds 2.
true (1)

Form field: PBM binding z-score at least 2? Entry: "TTACCAAGGTGACGGTCGTTGATCCCTCTGTAGA"
true (1)

Confirm if PBM binding z-score reported for the sequence "CCGACTGGGGCAAGGTTACCAGAACGCACAGCCA" is 2 or above.
true (1)

Please tell me: is the sequence "ATCGAAAGGTCGACGAGGTGGGTATACACCGTTT" at or over 2 in terms of PBM binding z-score?
false (0)

Does the reported PBM binding z-score for "CCTAATGGGCCATCAGGTCATTGATATCAACGTT" fall at or above the 2 mark?
true (1)

Kindly determine if PBM binding z-score recorded for "CGTCCAAGGTCAATGCTAGGTCAGTGATAGCATT" is above or exactly 2.
true (1)

Value source: the supplement of paper PMC6555819
